# tested.system: TRBV9+TRAV26 antigen
# assay.protocol: BLI (OctetRed 96), antigen on AR2G sensors, antibody 126-2 nM, 1:1 model; run 1

{"columns": ["binder", "relation.sign", "Kd, nM"],
 "data": [
  ["anti-TRBV9-4 monoclonal antibody (antibody, human IgG1, kappa, V domains shown) VH: QIQLVQSGPELREPGESVKLSCKASGYTFTDYLVHWVKQAPGKGLKWMGWINTYTGTPTYADDFEGRFVFSLEASASTANLQISNLKNEDTATYFCARSWRRGIRGIGFDYWGQGVFVTVSS VL: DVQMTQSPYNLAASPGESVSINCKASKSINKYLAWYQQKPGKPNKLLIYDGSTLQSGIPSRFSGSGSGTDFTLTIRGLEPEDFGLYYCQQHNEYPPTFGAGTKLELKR", "<", 0.001],
  ["anti-TRBV9-3 monoclonal antibody (antibody, human IgG1, kappa, V domains shown) VH: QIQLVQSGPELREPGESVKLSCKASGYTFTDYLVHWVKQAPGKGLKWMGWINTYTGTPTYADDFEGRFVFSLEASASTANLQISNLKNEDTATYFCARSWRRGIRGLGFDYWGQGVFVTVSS VL: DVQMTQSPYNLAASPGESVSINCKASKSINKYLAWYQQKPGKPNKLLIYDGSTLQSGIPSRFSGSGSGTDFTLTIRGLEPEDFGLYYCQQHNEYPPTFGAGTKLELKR", "=", 0.319],
  ["anti-TRBV9-2 monoclonal antibody (antibody, human IgG1, kappa, V domains shown) VH: QIQLVQSGPELREPGESVKLSCKASGYTFTDYLVHWVKQAPGKGLKWMGWINTYTGTPTYADDFEGRFVFSLEASASTANLQISNLKNEDTATYFCARSWRRGLRGIGFDYWGQGVFVTVSS VL: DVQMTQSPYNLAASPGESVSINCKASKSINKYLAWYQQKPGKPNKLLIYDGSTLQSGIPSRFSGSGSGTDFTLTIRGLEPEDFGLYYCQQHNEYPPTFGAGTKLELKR", "=", 0.0135],
  ["anti-TRBV9-1 monoclonal antibody (antibody, human IgG1, kappa, V domains shown) VH: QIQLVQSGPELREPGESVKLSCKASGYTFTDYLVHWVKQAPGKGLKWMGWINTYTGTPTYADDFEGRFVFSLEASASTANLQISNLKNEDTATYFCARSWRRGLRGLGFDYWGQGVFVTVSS VL: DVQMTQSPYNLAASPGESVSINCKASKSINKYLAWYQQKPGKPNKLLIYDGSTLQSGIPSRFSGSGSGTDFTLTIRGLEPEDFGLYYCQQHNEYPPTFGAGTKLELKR", "=", 0.22]
]}
